# target_system: Transferrin receptor 1 (hTfR/hTFRC) extracellular domain (Homo sapiens, UniProt P02786 SEQ:89-760)
# Sequence (P02786 89-760): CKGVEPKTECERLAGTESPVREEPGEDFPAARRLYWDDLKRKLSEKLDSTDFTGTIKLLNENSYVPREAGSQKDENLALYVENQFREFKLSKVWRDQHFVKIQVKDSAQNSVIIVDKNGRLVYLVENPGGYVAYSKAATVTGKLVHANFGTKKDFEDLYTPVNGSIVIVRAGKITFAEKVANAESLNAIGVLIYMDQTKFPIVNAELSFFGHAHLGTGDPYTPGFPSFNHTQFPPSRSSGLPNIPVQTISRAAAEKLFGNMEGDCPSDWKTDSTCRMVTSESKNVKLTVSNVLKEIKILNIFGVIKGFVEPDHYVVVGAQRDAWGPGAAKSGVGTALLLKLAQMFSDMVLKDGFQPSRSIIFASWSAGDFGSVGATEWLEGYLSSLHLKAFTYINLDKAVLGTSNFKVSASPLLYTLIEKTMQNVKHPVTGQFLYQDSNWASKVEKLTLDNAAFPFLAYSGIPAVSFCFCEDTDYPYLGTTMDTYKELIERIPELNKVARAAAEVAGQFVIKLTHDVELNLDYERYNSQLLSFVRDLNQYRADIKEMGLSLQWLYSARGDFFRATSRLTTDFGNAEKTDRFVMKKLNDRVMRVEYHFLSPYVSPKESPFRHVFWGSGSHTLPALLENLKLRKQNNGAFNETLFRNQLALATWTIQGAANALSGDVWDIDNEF
# experiment: SPR; 30 mM Tris pH 7.5, 150 mM NaCl, 5 mM MgCl2; aptamer immobilised
# applied_conditions: tags: N-terminal His6; expressed in HEK293; Sino Biological 11020-H07H; chain copies: 2 (inferred); label: biotin (SPR) or Cy3 (cells)
Reported Kd is given for each of the following binders.

{"binder": "GGGGCUCAAUGCGUUCACGUUUAUUCACAUUUUUGAAUUGAGCAUG (ssRNA, 2'-F pyrimidines (rule of the parent selection)) [TR14 S1 (46-nt)]", "Kd (nM)": 1.46}
{"binder": "UUUAUUCACAUUUUUGAAUUGA (ssRNA, 2'-F pyrimidines (rule of the parent selection)) [TR14 ST1-3 (22-nt)]", "Kd (nM)": 0.022}

This collection of values is drawn from patent US20220396794.
